Hello, the source for this data is ChEMBL document CHEMBL1201862, in case you need it.

# Tested on: 786-0
# Measurement Notes: NCI tumour cell line growth inhibition, 48 h
Activity calls are given as the source filed them. Cut-off read from the data, not from the text of the source: active = GI50 up to about 1.1 µM and inactive = higher.
Readout Type: GI50

Would you please look over these solved cases?
- Molecule: "Cc1nc(C)c(C(=O)NNC(=O)Cc2ccccc2)cc1C(=O)NNC(=O)Cc1ccccc1"
  Value Reported: "> 100 µM (inactive)"
- Molecule: "Cc1ccc(S(=O)(=O)N/N=C(/c2nc3ccc([N+](=O)[O-])cc3nc2O)C(O)c2ccc(C(O)/C(=N\\NS(=O)(=O)c3ccc(C)cc3)c3nc4ccc([N+](=O)[O-])cc4nc3O)cc2)cc1 (stereo not given)"
  Value Reported: "> 100 µM (inactive)"
- Molecule: "[N-]=[N+]=NC1(c2ccccc2)C(=O)c2cccc3c4ccccc4n(c23)C1=O (stereo not given)"
  Value Reported: "> 100 µM (inactive)"
- Molecule: "CC(=O)Oc1ccc(Nn2c3ccccc3c3ccccc32)c(C)c1"
  Value Reported: "20.6 µM (inactive)"

Query molecule follows.
Query: Form entry - test system: 786-0; read-out: GI50; molecule: "C\C=C/C=C/C=C/C(=O)O"
Reply: > 100 µM (inactive)

* * *

# Tested on: HL-60
# Measurement Notes: NCI tumour cell line growth inhibition, 48 h
The source made the active and inactive calls. Rule as the data show it: active = GI50 up to about 1.1 µM and inactive = higher.
Readout Type: GI50

Check out these entries, answers already filled in.
- Molecule: "c1ccc(-c2c(-c3[nH]c4ccccc4c3-c3ccccc3)[nH]c3ccccc23)cc1"
  Test System: "HL-60"
  Value Reported: "3.06 µM (inactive)"
- Molecule: "CC12CCC([C@H](C(O)C3CCCCC3)C1=O)C2(C)C (stereo partly drawn)"
  Test System: "HL-60"
  Value Reported: "13.9 µM (inactive)"
- Molecule: "COc1nc(C(=O)NNC(=O)c2nc(OC)c3ccccc3c2-c2ccccc2)c(-c2ccccc2)c2ccccc12"
  Test System: "HL-60"
  Value Reported: "> 100 µM (inactive)"
- Molecule: "CC(=O)Oc1ccc(Nn2c3ccccc3c3ccccc32)c(C)c1"
  Test System: "HL-60"
  Value Reported: "22.3 µM (inactive)"
- Molecule: "C=C1C(=O)OC2C1CC[C@H](C)C1(O)C(O)CC(=O)[C@@]21C (stereo partly drawn)"
  Test System: "HL-60"
  Value Reported: "17 µM (inactive)"
- Molecule: "CC(C)(C)OC(=O)NC(CSSCC(NC(=O)OC(C)(C)C)C(=O)O)C(=O)O (stereo not drawn)"
  Test System: "HL-60"
  Value Reported: "> 100 µM (inactive)"
- Molecule: "O=C1C(=O)N(C23CC4CC(CC(C4)C2)C3)C(=S)N1c1ccccc1"
  Test System: "HL-60"
  Value Reported: "42.8 µM (inactive)"

With those in mind, consider the next molecule.
Query: Which GI50 is reported for this molecule? CC1CCC2C(C(=O)O[C@H]3C4CCO[C@@H](OC5OC(CO)C(O)C(O)C5O)C4[C@@]4(CO)O[C@@H]34)=CO[C@@H](OC3OC(CO)C(O)C(O)C3O)C12 (stereo partly drawn)
Reply: > 10 µM (inactive)

* * *

# Tested on: M14
# Measurement Notes: NCI tumour cell line growth inhibition, 48 h
Calls of active or inactive are those of the source. No stated cut-off is given here; in the data, active = GI50 up to about 1.1 µM and inactive = higher.
Readout Type: GI50

Please review the following examples before continuing.
- Molecule: "O=P1(N(CCCl)CCCl)Oc2ccc(Cl)cc2C(C(Cl)(Cl)Cl)c2cc(Cl)ccc2O1 (centres undefined)"
  GI50: "18.8 µM (inactive)"
- Molecule: "CC(C)=CC(O)C(C(O)CCC1(C)OCCO1)S(=O)(=O)c1ccccc1 (centres undefined)"
  GI50: "> 100 µM (inactive)"
- Molecule: "COc1ccc(Nc2nc3ccccc3nc2C(=O)O)cc1"
  GI50: "> 100 µM (inactive)"
- Molecule: "O=c1oc2c(ccc3c(O)cccc32)c2c1CCCC2"
  GI50: "> 100 µM (inactive)"
- Molecule: "O=C(NNC(=O)c1ccccc1O)c1ccc(O)cc1"
  GI50: "23.7 µM (inactive)"
- Molecule: "O=c1c2ccccc2nc(Cc2nc(-c3ccc(Cl)cc3)cs2)n1-c1ccc(Cl)cc1"
  GI50: "> 100 µM (inactive)"
- Molecule: "CC1(C)C(C#N)C1C1=C(N2CCOCC2)[C@]2(C)C(OC(=O)c3ccccc3)CC[C@@H]2C1 (some centres undefined)"
  GI50: "> 100 µM (inactive)"
- Molecule: "O=C(NCc1ccc(Cl)c(Cl)c1)c1nc2ccccc2nc1NCc1ccc(Cl)c(Cl)c1"
  GI50: "> 100 µM (inactive)"

Shift focus to the following entry.
Query: Requested read-out: GI50. Entry: CCCCNC(=O)OCCN=C1c2ccccc2C(Br)C(Br)c2ccccc21 (centres undefined)
Reply: 19.4 µM (inactive)

* * *

# Tested on: SF-539
# Measurement Notes: NCI tumour cell line growth inhibition, 48 h
Active and inactive are the calls of the source. No stated cut-off is given here; in the data, active = GI50 up to about 1.1 µM and inactive = higher.
Hi! Could you answer with just one of these? T = active, F = inactive

Example entries begin here.
- Compound: "COC(CC1(/C=C/O[Si](C(C)C)(C(C)C)C(C)C)C(=O)N(COCC[Si](C)(C)C)c2ccccc21)OC (stereo not drawn)"
  Test System: "SF-539"
  Group Label: "F"
- Compound: "N#CC1=C(Cl)NC(Cl)=C(C#N)C1c1ccc(Cl)cc1"
  Test System: "SF-539"
  Group Label: "F"
- Compound: "COc1ccc(/C=C2\\CC3C4CC=C5C[C@@H](O)CC[C@]5(C)C4CC[C@]3(C)C2=O)cc1OC (stereo partly drawn)"
  Test System: "SF-539"
  Group Label: "F"

Query: # lookup: test call for "Cc1cn2c(/C=N/NC(=N)N)c(-c3ccc(Cl)c([N+](=O)[O-])c3)nc2s1"
Reply: F

Query: So what was the verdict on "COc1ccccc1NC(=O)C1=C(C)NC(C)=C(C(=O)Nc2ccccc2OC)C1c1ccccc1F" in this test?
Reply: F

* * *

# Tested on: UACC-257
# Measurement Notes: NCI tumour cell line growth inhibition, 48 h
Calls of active or inactive are those of the source. Cut-off read from the data, not from the text of the source: active = GI50 up to about 1.1 µM and inactive = higher.
Answer with one of the outcomes active, inactive

Look over these answered cases.
- Molecule: "COc1cc2c(cc1OC)-c1c3c(cc4c1[C@@H](C2)N(C)CC4)OCO3"
  Group Label: "inactive"
- Molecule: "NS(=O)(=O)c1ccc(NCc2cnc3ccccc3c2)cc1"
  Group Label: "inactive"
- Molecule: "COC(=O)c1cc2c3c(cc(N(C)C)c2[nH]1)N(C(=O)c1cc2cc(OC)c(OC)c(OC)c2[nH]1)CC3CCl (configuration not stated)"
  Group Label: "active"
- Molecule: "O=C(CC(=O)Nc1ccccc1Cl)NNC(c1cc(/N=N/c2ccc(Br)cc2)ccc1O)P(O)O (configuration not stated)"
  Group Label: "inactive"
- Molecule: "COc1ccc2cc(C(C)C(=O)N3CCOC3=O)ccc2c1 (configuration not stated)"
  Group Label: "inactive"

Query: Field: outcome | Entry: "COC(=O)[C@]1(C)CCCn2c(=O)n(-c3ccccc3)c(=O)n21"
Reply: inactive

Query: Please share the test call associated with "C[C@@H]1CC(=O)C[C@@H]2CC[C@H]3[C@@H]4CC[C@H](OC(=O)c5cccc6cc7ccccc7nc56)[C@H]4CC[C@@H]3[C@H]21" .
Reply: inactive

Query: Assay result, entry C=CCN(C(=O)OC(C)(C)C)C1=CC2C(C)=CN(S(=O)(=O)c3ccccc3)C2C(OCc2ccccc2)=C1 (configuration not stated) — outcome?
Reply: inactive

Query: What outcome does the record of this test show for NC(CCCCNCc1ccccc1)C(=O)O (configuration not stated) ?
Reply: inactive

Query: Dear colleague, could you share the recorded outcome for COc1ccc(/C=C2/SC(c3ccccc3)N(NC(=O)CCCCCCCCC(=O)NN3C(=O)/C(=C\c4ccc(OC)c(OC)c4)SC3c3ccccc3)C2=O)cc1OC (configuration not stated) when you have a moment?
Reply: inactive

Query: Which result was noted for this molecule in the test: "COC(=O)[C@]12C3=C(O)C(=O)C[C@H]1OC[C@H]2C=CC3"
Reply: inactive

Query: Please share the test call associated with COc1cc(CC2CC(c3ccc4c(c3)OCO4)OC2=O)cc(OC)c1OC (configuration not stated) .
Reply: inactive

* * *

# Test system: SF-539
# Measurement Notes: NCI tumour cell line growth inhibition, 48 h
Activity calls are given as the source filed them. Cut-off read from the data, not from the text of the source: active = GI50 up to about 1.1 µM and inactive = higher.
Result category, one only: 1 for active, -1 for inactive

Worked cases, answers included:
- Compound: "CCCCNC(=O)OCCN=C1c2ccccc2C(Br)C(Br)c2ccccc21 (stereo not drawn)"
  Test System: "SF-539"
  Group Label: -1
- Compound: "O=[N+]([O-])c1ccc(Cl)cc1N/N=C/c1cccc2cccnc12"
  Test System: "SF-539"
  Group Label: -1
- Compound: "O=C1/C(=C/c2ccc(Cl)cc2)Oc2cc(O)ccc21 [6-HYDROXY-4'-CHLORO AURONE]"
  Test System: "SF-539"
  Group Label: -1
- Compound: "CC(C)(C)OC(=O)NC(CSSCC(NC(=O)OC(C)(C)C)C(=O)O)C(=O)O (stereo not drawn)"
  Test System: "SF-539"
  Group Label: -1
- Compound: "CC(=O)OC1/C(=C/c2ccc([N+](=O)[O-])cc2)C[C@H]2[C@@H]3CC=C4C[C@@H](OC(C)=O)CC[C@]4(C)[C@H]3CC[C@]12C (stereo partly drawn)"
  Test System: "SF-539"
  Group Label: -1

Query: Per the assay record, what outcome was assigned to "CCOc1ccccc1NC(=O)C1=C(C)NC(C)=C(C(=O)Nc2ccccc2OCC)C1c1cccc([N+](=O)[O-])c1" ?
Reply: -1

Query: Status in this test for COc1cc(NC(C)=O)ccc1C(=O)NN1C(=O)C(Cl)C1c1ccco1 (stereo not drawn) ?
Reply: -1

Query: recorded result category for COC1=CC(=O)O/C1=C(\OC)C1OC1c1ccccc1 (stereo not drawn) in this test
Reply: -1

Query: Assay outcome for "COc1cc([C@@H]2c3cc4c(cc3[C@@H](NCCCN(C)C)[C@H]3COC(=O)[C@H]23)OCO4)cc(OC)c1O" : what was it?
Reply: 1

Query: I'd appreciate the recorded outcome for "Cc1cc(C)c(S(=O)(=O)N(CCCCCCN)OCCCN)c(C)c1" from this test.
Reply: -1

Query: Please state the recorded outcome for this compound: COc1ccc(C2ON(c3cccc(C)n3)CC=C2C)cc1 (stereo not drawn)
Reply: -1

Query: Dear colleague, could you share the recorded outcome for "O=C(Nc1ccccc1)O/N=C1/CCCC/C1=C\c1ccccc1" when you have a moment?
Reply: -1
